biological target: MMP-3 (Matrix Metalloproteinase-3, Stromelysin-1) (Homo sapiens); construct: C-terminal truncated form of human prostromelysin cDNA; test: Inhibition assay against MMP-3 (fluorescent MCA-labeled substrate); conditions: Table 10; active MMP at 20 nM, 37° C., 1.5 hours; read-out: IC50 MMP3
Sequence (P08254 100-272 limits assumed): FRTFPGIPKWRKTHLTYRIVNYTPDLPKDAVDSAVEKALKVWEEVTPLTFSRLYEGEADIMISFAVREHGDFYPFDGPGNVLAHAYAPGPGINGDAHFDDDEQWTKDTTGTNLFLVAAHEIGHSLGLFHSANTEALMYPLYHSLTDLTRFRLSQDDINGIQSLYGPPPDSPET
MEASURED QUANTITY: IC50 (nM)

• COc1ccc(CC2Sc3cc(C)c(C)cc3N(CC(=O)NO)C2=O)cc1 (centres unmarked) = 238

[A] CCC(C)C(C(=O)NO)N1C(=O)CSC1c1ccc(SC)cc1 (centres unmarked)
[B] COCCNC(=O)CC1SC(c2ccc(Cl)cc2)N(C(Cc2ccc(OC(C)(C)C)cc2)C(=O)NO)C1=O (centres unmarked)
[C] COc1ccc(CC2Sc3cc(C(=O)N[C@H](CO)CC(C)C)ccc3N(CC(=O)NO)C2=O)cc1 (some centres unmarked)
Sequence the entries by IC50, beginning with the highest number. Write the labels in rank order as requested.
A, B, C

[I] COCCNC(=O)CC1C(=O)N(C(CC(C)C)C(=O)NO)C(c2ccc(Oc3ccc(Cl)cc3)cc2)[S+]1[O-] (centres unmarked)
[II] COc1cccc(C2SC(CC(=O)NO)C(=O)N2CCc2ccc(O)cc2)c1OC (centres unmarked)
Returns: the argument ( I or II ) having the larger IC50. State your choice using its label.
II
(II: 1000 nM, I: 459 nM)
